B1: NF2 (merlin) isoform 7, human, full length (507 aa, lacks exons 2-3 = isoform-1 residues 39-121; exon-16 C-terminus), P35240-4 (parent)
chain: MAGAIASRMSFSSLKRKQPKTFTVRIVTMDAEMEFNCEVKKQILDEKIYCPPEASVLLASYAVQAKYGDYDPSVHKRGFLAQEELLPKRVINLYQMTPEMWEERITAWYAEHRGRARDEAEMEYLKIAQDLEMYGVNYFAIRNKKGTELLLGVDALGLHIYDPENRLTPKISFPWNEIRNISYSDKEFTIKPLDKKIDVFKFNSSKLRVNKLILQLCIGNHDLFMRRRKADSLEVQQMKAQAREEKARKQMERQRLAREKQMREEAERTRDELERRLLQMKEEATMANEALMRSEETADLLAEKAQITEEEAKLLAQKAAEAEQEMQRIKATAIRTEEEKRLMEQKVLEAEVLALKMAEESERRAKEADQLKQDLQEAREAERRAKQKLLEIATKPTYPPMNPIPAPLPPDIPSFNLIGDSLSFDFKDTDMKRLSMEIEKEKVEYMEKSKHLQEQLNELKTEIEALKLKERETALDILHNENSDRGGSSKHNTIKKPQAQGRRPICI

Variants of: B1
test name: reverse yeast two-hybrid deep mutational scan (rY2H-seq): NF2 isoform 7 mutant library as bait mated with wild-type prey strains; selection on medium lacking adenine for non-interacting pairs; NextSeq paired-end sequencing; enrichment vs …
reported conditions: with PIK3R3 (phosphatidylinositol 3-kinase regulatory subunit gamma), Q92569; yeast diploids after mating (RBait_S3 x RPrey_S3), 30 °C, selection for reporter genes on NB agar; human tyrosine kinase ABL2 co-expressed as the active kinase …; HIGHER = WEAKER BINDING (the opposite of display enrichments): higher = stronger loss of interaction: reverse Y2H selects yeast in which bait and prey do NOT interact (growth without adenine), so a …; hits-only table; scale: rY2H score; numbering: uniprot, sequence starts at 1
readout name: enrichment
// return a plain number; no unit text

## Input Field request: enrichment | item: K340L
## Output 1.55

## Input Also R268E , if possible.
## Output 11.6

## Input Also I334L , if possible.
## Output 1.39

## Input Also R228G , if possible.
## Output 15.3

## Input Also T336K , if possible.
## Output 2.98

## Input Also P407K , if possible.
## Output 2.65

## Input Also A107E , if possible.
## Output 6.23

## Input Also F173P , if possible.
## Output 13

## Input Also M401E , if possible.
## Output 2.14

## Input Also G486K , if possible.
## Output 10.3

## Input Also R166K , if possible.
## Output 2.44

## Input Also V56K , if possible.
## Output 3.28

## Input Also A406I , if possible.
## Output 5.49

## Input Also R227E , if possible.
## Output 36.3

## Input Also R166G , if possible.
## Output 1.44

## Input Also L207G , if possible.
## Output 1.42

## Input Also M343E , if possible.
## Output 1.45

## Input Also Q373A , if possible.
## Output 4.51

## Input Also I412L , if possible.
## Output 2.03

## Input Also G146R , if possible.
## Output 1.52

## Input Also G68V , if possible.
## Output 7.34

## Input Also L348A , if possible.
## Output 2.29

## Input Also P409L , if possible.
## Output 1.63

## Input Also A365K , if possible.
## Output 2.58

## Input Also Y398L , if possible.
## Output 1.96

## Input Also T473L , if possible.
## Output 4.41

## Input Also K346N , if possible.
## Output 2.36

## Input Also N137L , if possible.
## Output 1.5

## Input Also M225I , if possible.
## Output 2.15

## Input Also A393K , if possible.
## Output 3.14

## Input Also A59V , if possible.
## Output 2.52

## Input Also K340A , if possible.
## Output 1.46

## Input Also A365G , if possible.
## Output 2.6

## Input Also L417E , if possible.
## Output 2.19

## Input Also E164K , if possible.
## Output 2.53

## Input Also G501C , if possible.
## Output 1.45

## Input Also E338A , if possible.
## Output 4.09

## Input Also E309K , if possible.
## Output 3.02

## Input Also M251A , if possible.
## Output 4.21

## Input Also F415K , if possible.
## Output 2.73

## Input Also Y161L , if possible.
## Output 2.22

## Input Also E344K , if possible.
## Output 4.06

## Input Also L212P , if possible.
## Output 2.57

## Input Also Q387L , if possible.
## Output 5.44

## Input Also S294V , if possible.
## Output 1.71

## Input Also V24A , if possible.
## Output 2.39
